Test: compound effects on hepatocellular carcinoma cell viability – HepG2, calcein-AM fluorescence, 48 h, basal, profiling panel (AID 1164); also: test concentration not given here
Conditions: higher = more signal
Label scheme for z-score: lower than 0.8 is class 0, 0.8 and above is class 1.

Does the reported z-score for `C#CCNS(=O)(=O)N(C)C` fall at or above the 0.8 mark?
class 0

Does the reported z-score for `COCCCNC(=O)[C@]1(CCS(=O)(=O)c2ccccc2)N=C(c2ccc(OCCCO)cc2)O[C@@H]1c1ccccc1` fall at or above the 0.8 mark?
class 1

Does the reported z-score for N#Cc1ccc(NN2C(C(O)c3ccco3)C=CC3C(=O)N(c4ccccc4)C(=O)C32)cc1 (stereo not drawn) fall at or above the 0.8 mark?
class 1

Does the reported z-score for `COC(=O)[C@]1(Cc2ccccc2N=[N+]=[N-])N=C(c2ccc(OCCCO)cc2)O[C@@H]1c1ccccc1` fall at or above the 0.8 mark?
class 0

Does the reported z-score for `C=C(/C(=C/C[C@@H](OC(=O)c1ccncc1)c1cccc(OCCO)c1)c1cc(C(=O)OC)ccc1OC)C(C)C` fall at or above the 0.8 mark?
class 1

Does the reported z-score for `O=C1N(CCS(=O)(=O)c2ccccc2)Cc2ccccc2C[C@@]12COC(c1ccc(OCCCO)cc1)=N2` fall at or above the 0.8 mark?
class 1

Does the reported z-score for CC(C)=CCCC(C)=CC(O)C1C=CC2C(=O)N(c3ccccc3)C(=O)C2N1Nc1ccc([N+](=O)[O-])cc1 (stereo not drawn) fall at or above the 0.8 mark?
class 0

Does the reported z-score for `[N-]=[N+]=NCc1ccccc1C[C@]1(C(=O)NCCN2CCOCC2)N=C(c2ccc(OCCCO)cc2)O[C@H]1c1ccccc1` fall at or above the 0.8 mark?
class 0

Does the reported z-score for C[C@]12C(=O)N(CCCO)[C@@H]3C(=O)N(c4ccc(Cl)cc4)CC=CC31O[C@@H]1/C=C\CCCOC(=O)C12 (stereo partly drawn) fall at or above the 0.8 mark?
class 0

Does the reported z-score for `C=C(CCCC)/C(=C/C[C@@H](OC(=O)c1ccncc1)c1ccccc1OCCO)c1cc(C(=O)OC)ccc1OC` fall at or above the 0.8 mark?
class 1

Does the reported z-score for `COc1ccccc1CN1C(=O)c2ccccc2[C@@]2(Cc3ccccc3N(C3CC3)C2=O)[C@@H]1c1ccc(CO)cc1` fall at or above the 0.8 mark?
class 0

Does the reported z-score for `CC1=C2[C@@H](CCc3ccccc3)OB(O)C[C@@H]2[C@@H]2C(=O)C=CC(=O)[C@@H]2C1` fall at or above the 0.8 mark?
class 0

Does the reported z-score for CN1C(=O)C2C=CC(C(O)c3cccc4ccccc34)N(NC(=O)OC(C)(C)C)C2C1=O (stereo not drawn) fall at or above the 0.8 mark?
class 0
